B1: LINE1-full (parent)
chain: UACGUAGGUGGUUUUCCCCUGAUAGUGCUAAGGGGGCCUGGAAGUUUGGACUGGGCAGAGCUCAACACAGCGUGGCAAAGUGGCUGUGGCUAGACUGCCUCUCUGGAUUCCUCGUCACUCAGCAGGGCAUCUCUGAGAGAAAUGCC

# Variants of: B1
# Assay Overview: self-cleavage, relative activity (ratio to wild type); higher = more cleavage; in vitro, sequencing; the parent is a self-cleaving ribozyme
Quantity Kind: self-cleavage

Variant Annotation	self-cleavage
U100C A140U	1.82

Task: Data request, read-out self-cleavage, for A94U U134C
Output: 0.32

Task: Data request, read-out self-cleavage, for U9C C16A
Output: 0.59

Task: Data request, read-out self-cleavage, for U87C U102C
Output: 0.36

Recorded values, source the RNAGym collection of RNA variant scans (doi:10.7554/elife.90254).
